System: U251
procedure text: NCI60 five-dose screen
Type: cell-based
test context: Homo sapiens, U-251; U251, CNS cancer; read-out: LC50 (the source's name)
Reported CC50 by item:

INPUT: Given Cc1cc(C)c(/C=N/NC(=O)c2[nH]c3ccc(Br)cc3c2-c2ccccc2)[nH]1 , state its recorded CC50.
OUTPUT: 35.7 µM

INPUT: How about CCc1ccc(/C=N/NC(=O)c2[nH]c3ccc(Br)cc3c2-c2ccccc2)[nH]1 ?
OUTPUT: 36.7 µM

INPUT: How about Cn1cccc1/C=N/NC(=O)c1[nH]c2ccc(Br)cc2c1-c1ccccc1 ?
OUTPUT: > 100 µM

INPUT: How about CCc1cc[nH]c1/C=N/NC(=O)c1[nH]c2ccc(Br)cc2c1-c1ccccc1 ?
OUTPUT: 37.8 µM

INPUT: How about O=C(N/N=C/c1cc(Br)c(Br)[nH]1)c1[nH]c2ccc(Br)cc2c1-c1ccccc1 ?
OUTPUT: 36 µM

INPUT: How about CCc1c[nH]c(/C=N/NC(=O)c2[nH]c3ccc(Br)cc3c2-c2ccccc2)c1 ?
OUTPUT: 38.2 µM

INPUT: How about Cc1[nH]c(/C=N/NC(=O)c2[nH]c3ccc(Br)cc3c2-c2ccccc2)c(C)c1[N+](=O)[O-] ?
OUTPUT: 13.4 µM

INPUT: How about O=C(N/N=C/c1cc(Cl)c[nH]1)c1[nH]c2ccc(Br)cc2c1-c1ccccc1 ?
OUTPUT: 24.9 µM

INPUT: How about O=C(N/N=C/c1cc[nH]c1)c1[nH]c2ccc(Br)cc2c1-c1ccccc1 ?
OUTPUT: 40.8 µM

INPUT: How about O=C(N/N=C/c1ccc[nH]1)c1[nH]c2ccc(Br)cc2c1-c1ccccc1 ?
OUTPUT: 12.4 µM

INPUT: How about O=C(N/N=C/c1cc([N+](=O)[O-])c[nH]1)c1[nH]c2ccc(Br)cc2c1-c1ccccc1 ?
OUTPUT: 66.8 µM

###

Reported CC50 by item:
Tested on: U251
procedure text: NCI60 five-dose screen
Type: cell-based
test context: Homo sapiens, U-251; U251, CNS cancer; read-out: LC50 (the source's name)
Quick reminder: number only, in µM, skip the unit.

CCOC(=O)c1c[nH]c(/C=N/NC(=O)c2[nH]c3ccc(Br)cc3c2-c2ccccc2)c1 : 40.6

INPUT: Given O=C(N/N=C/c1cc(Br)c[nH]1)c1[nH]c2ccc(Br)cc2c1-c1ccccc1 , state its recorded CC50.
OUTPUT: 10.1

INPUT: How about O=C(N/N=C/c1ccc(C(=O)N2CCOCC2)[nH]1)c1[nH]c2ccc(Br)cc2c1-c1ccccc1 ?
OUTPUT: 84.7

INPUT: How about O=C(N/N=C/c1[nH]ccc1Cl)c1[nH]c2ccc(Br)cc2c1-c1ccccc1 ?
OUTPUT: 37.7

INPUT: How about CCOC(=O)c1cc(/C=N/NC(=O)c2[nH]c3ccc(Br)cc3c2-c2ccccc2)c[nH]1 ?
OUTPUT: 37.6

INPUT: How about O=C(N/N=C/c1ccc([N+](=O)[O-])[nH]1)c1[nH]c2ccc(Br)cc2c1-c1ccccc1 ?
OUTPUT: 39.2

INPUT: How about CCOC(=O)c1ccc(/C=N/NC(=O)c2[nH]c3ccc(Br)cc3c2-c2ccccc2)[nH]1 ?
OUTPUT: 39.4

###

NCI-H522: recorded GI50 for assorted compounds
Number plus unit, in that order.

O=C(N/N=C/c1cc(Cl)c[nH]1)c1[nH]c2ccc(Br)cc2c1-c1ccccc1 : 211 nM

Kindly consider the entry below.
INPUT: Please tell me: GI50 of CCc1cc[nH]c1/C=N/NC(=O)c1[nH]c2ccc(Br)cc2c1-c1ccccc1 , system NCI-H522?
OUTPUT: 2300 nM

###

System: 786-0
procedure text: NCI60 five-dose screen
Type: cell-based
test context: Homo sapiens; 786-0, renal cancer; read-out: LC50 (the source's name)
quantity: CC50 (µM)
Quick reminder: number only, in µM, skip the unit.

Sample answers from the record:
O=C(N/N=C/c1ccc([N+](=O)[O-])[nH]1)c1[nH]c2ccc(Br)cc2c1-c1ccccc1 [Derivative 3p] : 41.4
CCOC(=O)c1cc(/C=N/NC(=O)c2[nH]c3ccc(Br)cc3c2-c2ccccc2)c[nH]1 [Derivative 3v] : 53.3
CCc1c[nH]c(/C=N/NC(=O)c2[nH]c3ccc(Br)cc3c2-c2ccccc2)c1 [Derivative 3t] : 38.5
O=C(N/N=C/c1ccc(C(=O)N2CCOCC2)[nH]1)c1[nH]c2ccc(Br)cc2c1-c1ccccc1 [Derivative 3n] : 80.7
Cc1cc(C)c(/C=N/NC(=O)c2[nH]c3ccc(Br)cc3c2-c2ccccc2)[nH]1 [Derivative 3c] : 63.9
O=C(N/N=C/c1ccc[nH]1)c1[nH]c2ccc(Br)cc2c1-c1ccccc1 [Derivative 3a] : 23.9
O=C(N/N=C/c1[nH]ccc1Cl)c1[nH]c2ccc(Br)cc2c1-c1ccccc1 [Derivative 3g] : 50.2

Kindly consider the entry below.
INPUT: Given CCc1ccc(/C=N/NC(=O)c2[nH]c3ccc(Br)cc3c2-c2ccccc2)[nH]1 [Derivative 3s] , state its recorded CC50.
OUTPUT: 47.4

###

Test system: M14
Hi! Could you tag entries with GI50 below 700 nM as yes (1), and those at or above as no (0)? Much appreciated.

Cc1cc(C)c(/C=N/NC(=O)c2[nH]c3ccc(Br)cc3c2-c2ccccc2)[nH]1 : no (0)

INPUT: For O=C(N/N=C/c1cc[nH]c1)c1[nH]c2ccc(Br)cc2c1-c1ccccc1 , is the recorded GI50 below the cut-off of 700 nM?
OUTPUT: no (0)

INPUT: How about CCOC(=O)c1c[nH]c(/C=N/NC(=O)c2[nH]c3ccc(Br)cc3c2-c2ccccc2)c1 ?
OUTPUT: no (0)

INPUT: How about CCc1cc[nH]c1/C=N/NC(=O)c1[nH]c2ccc(Br)cc2c1-c1ccccc1 ?
OUTPUT: no (0)

INPUT: How about O=C(N/N=C/c1ccc([N+](=O)[O-])[nH]1)c1[nH]c2ccc(Br)cc2c1-c1ccccc1 ?
OUTPUT: yes (1)

INPUT: How about Cn1cccc1/C=N/NC(=O)c1[nH]c2ccc(Br)cc2c1-c1ccccc1 ?
OUTPUT: yes (1)

INPUT: How about O=C(N/N=C/c1ccc(C(=O)N2CCOCC2)[nH]1)c1[nH]c2ccc(Br)cc2c1-c1ccccc1 ?
OUTPUT: no (0)

INPUT: How about CCc1c[nH]c(/C=N/NC(=O)c2[nH]c3ccc(Br)cc3c2-c2ccccc2)c1 ?
OUTPUT: yes (1)

INPUT: How about Cc1[nH]c(/C=N/NC(=O)c2[nH]c3ccc(Br)cc3c2-c2ccccc2)c(C)c1[N+](=O)[O-] ?
OUTPUT: no (0)

INPUT: How about O=C(N/N=C/c1cc(Br)c(Br)[nH]1)c1[nH]c2ccc(Br)cc2c1-c1ccccc1 ?
OUTPUT: no (0)

INPUT: How about O=C(N/N=C/c1cc(Br)c[nH]1)c1[nH]c2ccc(Br)cc2c1-c1ccccc1 ?
OUTPUT: yes (1)

INPUT: How about O=C(N/N=C/c1ccc[nH]1)c1[nH]c2ccc(Br)cc2c1-c1ccccc1 ?
OUTPUT: yes (1)

INPUT: How about CCOC(=O)c1cc(/C=N/NC(=O)c2[nH]c3ccc(Br)cc3c2-c2ccccc2)c[nH]1 ?
OUTPUT: no (0)

INPUT: How about O=C(N/N=C/c1cc(Cl)c[nH]1)c1[nH]c2ccc(Br)cc2c1-c1ccccc1 ?
OUTPUT: yes (1)

INPUT: How about O=C(N/N=C/c1cc([N+](=O)[O-])c[nH]1)c1[nH]c2ccc(Br)cc2c1-c1ccccc1 ?
OUTPUT: yes (1)

INPUT: How about CCOC(=O)c1ccc(/C=N/NC(=O)c2[nH]c3ccc(Br)cc3c2-c2ccccc2)[nH]1 ?
OUTPUT: no (0)

INPUT: How about CCc1ccc(/C=N/NC(=O)c2[nH]c3ccc(Br)cc3c2-c2ccccc2)[nH]1 ?
OUTPUT: yes (1)

###

System: UACC-62
procedure text: NCI60 five-dose screen
Type: cell-based
test context: Homo sapiens; UACC-62, melanoma
quantity: log10(GI50) (log10 of the value in µM)
Annotation: log10 of GI50, µM basis.

Sample answers from the record:
Cn1cccc1/C=N/NC(=O)c1[nH]c2ccc(Br)cc2c1-c1ccccc1 : -0.55
O=C(N/N=C/c1cc[nH]c1)c1[nH]c2ccc(Br)cc2c1-c1ccccc1 : 0.01
CCOC(=O)c1c[nH]c(/C=N/NC(=O)c2[nH]c3ccc(Br)cc3c2-c2ccccc2)c1 : 0.47
O=C(N/N=C/c1cc(Br)c(Br)[nH]1)c1[nH]c2ccc(Br)cc2c1-c1ccccc1 : 0.08
O=C(N/N=C/c1cc(Br)c[nH]1)c1[nH]c2ccc(Br)cc2c1-c1ccccc1 : -0.36

INPUT: Given CCc1cc[nH]c1/C=N/NC(=O)c1[nH]c2ccc(Br)cc2c1-c1ccccc1 , state its recorded log10(GI50).
OUTPUT: 0.39

INPUT: How about Cc1cc(C)c(/C=N/NC(=O)c2[nH]c3ccc(Br)cc3c2-c2ccccc2)[nH]1 ?
OUTPUT: 0.37

INPUT: How about O=C(N/N=C/c1ccc([N+](=O)[O-])[nH]1)c1[nH]c2ccc(Br)cc2c1-c1ccccc1 ?
OUTPUT: -0.35
